molecular target: KRas-G12D (Homo sapiens, UniProt P01116, G12D); construct: insert the HiBiT tag onto the N-terminus of one or more of the endogenous KRas alleles; host or cells: AsPC-1 HiBiT-KRasG12D knock-in clone (one tagged allele, two untagged KRasG12D alleles); test: HiBiT Degradation Assay (G12D), AsPC-1 HiBiT-KRasG12D cells, 24 hr; assay type: cell-based; conditions: AsPC-1 cells
Sequence (P01116 1-188 isoform P01116-2 G12D): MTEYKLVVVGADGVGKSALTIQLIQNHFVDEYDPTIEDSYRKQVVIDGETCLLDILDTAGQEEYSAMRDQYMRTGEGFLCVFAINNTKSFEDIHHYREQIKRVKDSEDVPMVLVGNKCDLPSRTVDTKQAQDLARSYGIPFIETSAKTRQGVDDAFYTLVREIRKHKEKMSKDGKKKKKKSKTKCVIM
Reported property: DC50

In the examples that follow, each entry is paired with its recorded DC50.
[[record]]
compound = "CCc1cccc2cc(O)cc(-c3ncc4c(N5CC6CCC(C5)N6)nc(OCCN5CCC(CC6CCN(c7cccc8c7CN(C7CCC(=O)NC7=O)C8=O)CC6)CC5)nc4c3F)c12 (stereo not drawn)"
measured_result = "250 to 1000 nM"

[[record]]
compound = "CCc1cccc2cc(O)cc(-c3ncc4c(N5CC6CCC(C5)N6)nc(OC[C@@H]5C[C@@H](OC6CCN(c7ccc8c(c7)CN(C7CCC(=O)NC7=O)C8=O)CC6)CN5C)nc4c3F)c12 (stereo partly drawn)"
measured_result = "< 5100 nM"

[[record]]
compound = "CCc1cccc2cc(O)cc(-c3ncc4c(N5CC6CCC(C5)N6)nc(OCCN5CCN(c6ccc7c(c6)C(=O)N(C6CCC(=O)NC6=O)C7=O)CC5)nc4c3F)c12 (stereo not drawn)"
measured_result = "> 1000 nM"


Please report the recorded DC50 for CCc1cccc2cc(O)cc(-c3ncc4c(N5CC6CCC(C5)N6)nc(OCCN5CCOC(CN6CCN(CC7CCN(c8ccc9c(c8)C(=O)N(C8CCC(=O)NC8=O)C9=O)CC7)CC6)C5)nc4c3F)c12 (stereo not drawn) .
250 to 1000 nM

Try the compound C#Cc1c(F)ccc2cc(O)cc(-c3ncc4c(N5CC6CCC(C5)N6)nc(OC[C@@H]5C[C@@H](OC6CCN(CC7CCN(c8ccc9c(c8F)n(C(C)C)c(=O)n9C8CCC(=O)NC8=O)CC7)CC6)CN5C)nc4c3F)c12 (stereo partly drawn)
< 5100 nM

Try the compound CCc1c(F)ccc2cc(O)cc(-c3ncc4c(N5CC6CCC(C5)N6)nc(OC[C@@H]5C[C@@H](OC6CCN(CC7CCN(c8ccc9c(c8Cl)CN(C8CCC(=O)NC8=O)C9=O)CC7)CC6)CN5C)nc4c3F)c12 (stereo partly drawn)
< 5100 nM
